Overview of recorded pEC50 for various compounds
# Test system: HBV viral production from HepAD38 cells
# assayProtocol: Activity of test compounds on viral production from HepAD38 cells (viral load by qPCR of HBV core sequence in supernatant)
# Assay type: cell-based
# testContext: Hepatitis B virus, 120 h, 5 days incubation, HBV DNA in supernatant by qPCR, top concentration 10 μM, read-out: Viral Load EC50 Activity range
pEC50: −log10 of the molar value.
readoutType: pEC50

[
  {
    "compound": "CN1[C@@H](C(=O)Nc2ccc(F)c(Cl)c2)C[C@@H](c2cc(-c3cncn3C)cs2)NS1(=O)=O (relative stereo) [HBV-CSU-285-ISO-II]",
    "readoutType": "pEC50",
    "observedResult": "> 6.00"
  },
  {
    "compound": "CN1[C@@H](C(=O)Nc2ccc(F)c(Br)c2)C[C@@H](c2ccc(F)cc2)NS1(=O)=O [HBV-CSU-211-ISO-II]",
    "readoutType": "pEC50",
    "observedResult": "< 5.30"
  },
  {
    "compound": "CN1[C@H](C(=O)Nc2ccc(F)c(Cl)c2)C[C@H](c2cccc(-c3cnn(C)c3)c2)NS1(=O)=O [HBV-CSU-247-ISO-I]",
    "readoutType": "pEC50",
    "observedResult": "< 5.30"
  },
  {
    "compound": "C=CCN1[C@H](C(=O)Nc2ccc(F)c(Cl)c2)C[C@H](c2nccs2)NS1(=O)=O [HBV-CSU-094-ISO-II]",
    "readoutType": "pEC50",
    "observedResult": "> 6.00"
  },
  {
    "compound": "CN1[C@@H](C(=O)Nc2ccc(F)c(Cl)c2)C[C@@H](c2ncc(-c3ccnn3C)s2)NS1(=O)=O [HBV-CSU-281-ISO-II]",
    "readoutType": "pEC50",
    "observedResult": "5.30 to 6.00"
  },
  {
    "compound": "CN1[C@H](C(=O)Nc2ccc(F)c(Cl)c2)C[C@H](c2cc(-c3cncn3C)cs2)NS1(=O)=O [HBV-CSU-285-ISO-I]",
    "readoutType": "pEC50",
    "observedResult": "> 6.00"
  },
  {
    "compound": "CN1C(C(=O)Nc2ccc(F)c(Cl)c2)CC(c2ccc(Br)c(F)c2)NS1(=O)=O (stereo not shown) [HBV-CSU-283]",
    "readoutType": "pEC50",
    "observedResult": "> 6.00"
  }
]
